Assay: protein stability index of a GFP-peptide fusion (yeast GPS) (PSI 1-4); higher = more stable; sorted into four equal gates, so the index is relative within each strain
Details: ubr1∆
Assignment: determine reported protein stability index for the given sequences.
Numbers only.

LPDPILKNFLSYESLKK [MCD1] | 3.37

Please state protein stability index for every sequence in the list that follows.
1. MQVLNTKSETKQENETM [MED11]
2. PYMNHKNTSSMDFLNSM [GAL11]
3. KLLTPQDMEAAKEVYKI [GAL11]
4. KISEDPVKALNECIAST [SNF12]

Result:
1: 2; 2: 3.04; 3: 3.49; 4: 2.82

Please state protein stability index for every sequence in the list that follows.
1. QHTSFQEAVNSLKGYKI [CSI1]
2. RDALRNIKNTNEEATPI [RRP6]
3. KNTQSPQTPLVEPVTER [SNU114]

Result:
1: 3.39; 2: 2.94; 3: 3.01

Please state protein stability index for every sequence in the list that follows.
1. RIAVLHQKTKTLASLSI [YGL172W/NUP49]
2. DNDSLTDLESLSSGESN [SIR4]
3. KQERSKQERLKENEESL [PRP28]
4. GRLEIFKIHTAKVKKTG [RPT4]

Result:
[2.75, 3.09, 3.31, 2.51]

Please state protein stability index for every sequence in the list that follows.
1. PYKYRLREEIFIANEGV [RPL2A]
2. FRFDSIQRETLLPTNNG [GRR1]

Result:
[2.86, 2.92]

Where do these numbers come from? They come from the supplement of paper PMC9732359.
